- TESTED_ON: m4-52
QUANTITY: Kd (nM)
Field format: number, assumed nM, no unit text.

Sample answers from the record:
BINDER: mLTbR (receptor) QLVPPYRIENQTCWDQDKEYYEPMHDVCCSRCPPGEFVFAVCSRSQDTVCKTCPHNSYNEHWNHLSTCQLCRPCDIVLGFEEVAPCTSDRKAECRCQPGMSCVYLDNECVHCEEERLVLCQPGTEAEVTDEIMDTDVNCVPCKPGHFQNTSSPRARCQPHTRCEIQGLVEAAPGTSYSDTICKNPPEPGAMLL
UNIT_SPEC: nM
Kd: 0.68
//
BINDER: hLTbR (receptor) QAVPPYASENQTCRDQEKEYYEPQHRICCSRCPPGTYVSAKCSRIRDTVCATCAENSYNEHWNYLTICQLCRPCDPVMGLEEIAPCTSKRKTQCRCQPGMFCAAWALECTHCELLSDCPPGTEAELKDEVGKGNNHCVPCKAGHFQNTSSPSARCQPHTRCENQGLVEAAPGTAQSDTTCKNPLEPLPPEMSGTMLM
UNIT_SPEC: nM
Kd: 1.12

Q: Note down Kd recorded for hHVEM (receptor) LPSCKEDEYPVGSECCPKCSPGYRVKEACGELTGTVCEPCPPGTYIAHLNGLSKCLQCQMCDPAMGLRASRNCSRTENAVCGCSPGHFCIVQDGDHCAACRAYATSSPGQRVQKGGTESQDTLCQNCPPGTFSPNGTLEECQHQTKCSWLVTKAGAGTSSSHWV
Ans: 1.42

Q: Please give measured Kd of the following entry: mHVEM (receptor) QPSCRQEEFLVGDECCPMCNPGYHVKQVCSEHTGTVCAPCPPQTYTAHANGLSKCLPCGVCDPDMGLLTWQECSSWKDTVCRCIPGYFCENQDGSHCSTCLQHTTCPPGQRVEKRGTHDQDTVCADCLTGTFSLGGTQEECLPWTNCSAFQQEVRRGTNSTDTTCSSQ
Ans: 2.44
